Molecular target: human TGR5 (Homo sapiens, UniProt Q8TDU6)
Sequence (Q8TDU6 whole entry): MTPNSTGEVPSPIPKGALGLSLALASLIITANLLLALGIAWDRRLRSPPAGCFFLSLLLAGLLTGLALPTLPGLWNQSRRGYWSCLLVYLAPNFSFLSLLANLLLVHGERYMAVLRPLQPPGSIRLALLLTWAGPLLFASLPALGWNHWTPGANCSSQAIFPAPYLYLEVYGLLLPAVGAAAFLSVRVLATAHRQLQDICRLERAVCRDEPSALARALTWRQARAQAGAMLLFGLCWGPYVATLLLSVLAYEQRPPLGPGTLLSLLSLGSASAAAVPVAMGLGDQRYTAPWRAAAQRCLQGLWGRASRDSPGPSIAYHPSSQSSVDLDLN
Assay: Luciferase reporter assay for human TGR5 activation in HEK293T cells overexpressing human TGR5
Settings: HEK293T cells overexpressing human TGR5
metricName: EC50 (nM)
Express your answer in nM, writing the number without its unit.

1. C[C@H](CCC(=O)O)[C@H]1CC[C@H]2[C@@H]3[C@H](NS(=O)(=O)O)C[C@@H]4C[C@H](O)CC[C@]4(C)[C@H]3CC[C@]12C 1700

# evaluate next
Tell me reported EC50 for C[C@H](CCC(=O)O)[C@H]1CC[C@H]2[C@@H]3[C@H](NS(=O)(=O)O)C[C@@H]4C[C@H](O)CC[C@]4(C)[C@H]3C[C@H](O)[C@]12C , tested with human TGR5 (Homo sapiens, UniProt Q8TDU6).
2400

Where do these numbers come from? They come from patent US12419897B2.
